conditions: in methanol, 303.15 K
experimental_endpoint: solubility (mole fraction)

       chemical_structure   reading
0  NC(=O)CC[C@H](N)C(=O)O  0.000164

----------
settings: in n-butanol, 323.15 K
experimental_endpoint: solubility (mole fraction)

>>> print(df.to_string())
       chemical_structure   reading
0  NC(=O)CC[C@H](N)C(=O)O  0.000635

----------
details: in 2-butanone, 288.15 K
experimental_endpoint: solubility (mole fraction)

>>> print(df.to_string())
       chemical_structure  reading
0  NC(=O)CC[C@H](N)C(=O)O  0.00017

----------
details: in ethanol, 303.15 K
experimental_endpoint: solubility (mole fraction)

In [3]: df
Out[3]:
       chemical_structure   reading
0  NC(=O)CC[C@H](N)C(=O)O  0.000408

----------
settings: in n-hexane, 318.15 K
experimental_endpoint: solubility (mole fraction)

>>> print(df.to_string())
       chemical_structure   reading
0  NC(=O)CC[C@H](N)C(=O)O  0.000621

----------
settings: in n-butanol, 283.15 K
experimental_endpoint: solubility (mole fraction)

       chemical_structure       experimental_endpoint   reading
0  NC(=O)CC[C@H](N)C(=O)O  solubility (mole fraction)  0.000184

----------
settings: in acetonitrile, 283.15 K
experimental_endpoint: solubility (mole fraction)

       chemical_structure       experimental_endpoint   reading
0  NC(=O)CC[C@H](N)C(=O)O  solubility (mole fraction)  3.44e-05

----------
conditions: in n-butanol, 303.15 K
experimental_endpoint: solubility (mole fraction)

       chemical_structure  reading
0  NC(=O)CC[C@H](N)C(=O)O   0.0004

----------
conditions: in n-pentanol, 303.15 K
experimental_endpoint: solubility (mole fraction)

>>> df
       chemical_structure       experimental_endpoint   reading
0  NC(=O)CC[C@H](N)C(=O)O  solubility (mole fraction)  0.000245

----------
settings: in n-hexane, 323.15 K
experimental_endpoint: solubility (mole fraction)

>>> df
       chemical_structure   reading
0  NC(=O)CC[C@H](N)C(=O)O  0.000681

----------
settings: in methanol, 283.15 K
experimental_endpoint: solubility (mole fraction)

>>> df
       chemical_structure       experimental_endpoint  reading
0  NC(=O)CC[C@H](N)C(=O)O  solubility (mole fraction)  9.5e-05

----------
conditions: in ethyl acetate, 298.15 K
experimental_endpoint: solubility (mole fraction)

>>> df
       chemical_structure   reading
0  NC(=O)CC[C@H](N)C(=O)O  0.000218

----------
settings: in n-propanol, 308.15 K
experimental_endpoint: solubility (mole fraction)

>>> print(df.to_string())
       chemical_structure   reading
0  NC(=O)CC[C@H](N)C(=O)O  0.000266

----------
details: in n-hexane, 313.15 K
experimental_endpoint: solubility (mole fraction)

       chemical_structure   reading
0  NC(=O)CC[C@H](N)C(=O)O  0.000554

----------
conditions: in water, 303.15 K
experimental_endpoint: solubility (mole fraction)

>>> print(df.to_string())
       chemical_structure       experimental_endpoint  reading
0  NC(=O)CC[C@H](N)C(=O)O  solubility (mole fraction)  0.00595

----------
settings: in methanol, 308.15 K
experimental_endpoint: solubility (mole fraction)

>>> print(df.to_string())
       chemical_structure   reading
0  NC(=O)CC[C@H](N)C(=O)O  0.000205

Recorded values, source BigSolDB 2.1.
